Assay: Assay for oral absorbability: plasma drug concentration in rats after intravenous (1 mg/kg) and oral (3 mg/kg) administration (Cmax, bioavailability, C360)
Format: in vivo
Conditions: male, rat, plasma; oral 3 mg/kg vs intravenous 1 mg/kg, SD rats
Quantity name: bioavailability (%)

a = COc1cccc(F)c1C(C)Oc1ccc(F)c(-n2c(=O)[nH]c3csc(C(=O)O)c3c2=O)c1 (centres unmarked) [Example 48]
b = O=C(O)c1scc2[nH]c(=O)n(-c3cc(S(=O)(=O)N4CCCc5ccccc54)ccc3Cl)c(=O)c12 [Example 22]
Sorting ascending by bioavailability, which comes first: a or b ? Choose, then provide that item's label. b
(b: 11%, a: 65%)
